Reference source: patent US20030118627A1

Test system: DU145
experiment_description: MTT cytotoxicity assay, DU145 prostate
Format: cell-based
recorded_conditions: Homo sapiens, DU-145, 2.5 mM, read-out: Percent cytotoxicity
endpoint: cytotoxicity at 2500 µM
Value and unit, in that order.

Please review the following examples before continuing.
CC(=O)OC(C(C)=O)N1C(=O)CCC1C(=O)OCc1ccccc1 (stereo not shown) [MGC-6]    56.9%
CCOC(=O)C1CCC(=O)N1C(O)C(C)=O (stereo not shown) [MGC-7]    65%
COC(=O)C1CCC(=O)N1C(OC(C)=O)C(C)=O (stereo not shown) [MGC-4]    58.9%
CCCCOC(=O)C1CCC(=O)N1C(O)C(C)=O (stereo not shown) [MGC-2]    53.9%
CC(=O)C(O)N1C(=O)CCC1C(=O)OCc1ccccc1 (stereo not shown) [MGC-3]    56.9%

Exam item: Suppose we examine the compound CCCCOC(=O)C1CCC(=O)N1C(OC(C)=O)C(C)=O (stereo not shown) [MGC-5] ; what cytotoxicity at 2500 µM value has been reported?
Marked response: 58.4%

Exam item: Suppose we examine the compound CCOC(=O)C1CCC(=O)N1C(OC(C)=O)C(C)=O (stereo not shown) [MGC-8] ; what cytotoxicity at 2500 µM value has been reported?
Marked response: 67.4%
